Target: UniProtKB O15244
Sequence (O15244 whole entry): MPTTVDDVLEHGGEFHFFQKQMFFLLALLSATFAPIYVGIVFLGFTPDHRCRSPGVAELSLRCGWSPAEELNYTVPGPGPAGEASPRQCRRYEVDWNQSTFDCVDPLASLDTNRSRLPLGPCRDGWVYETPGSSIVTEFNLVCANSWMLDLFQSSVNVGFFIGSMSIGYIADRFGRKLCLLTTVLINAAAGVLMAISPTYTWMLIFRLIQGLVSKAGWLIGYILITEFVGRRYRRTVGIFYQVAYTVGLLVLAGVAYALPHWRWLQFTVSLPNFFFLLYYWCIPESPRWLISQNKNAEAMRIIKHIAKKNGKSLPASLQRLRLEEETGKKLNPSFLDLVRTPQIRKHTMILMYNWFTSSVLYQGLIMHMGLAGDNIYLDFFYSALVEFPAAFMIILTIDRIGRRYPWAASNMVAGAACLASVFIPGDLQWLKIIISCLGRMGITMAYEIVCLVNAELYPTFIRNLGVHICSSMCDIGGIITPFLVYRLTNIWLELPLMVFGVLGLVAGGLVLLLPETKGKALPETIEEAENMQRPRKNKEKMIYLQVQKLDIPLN
Test: Inhibition of hOCT2-mediated 3H-MPP uptake in transfected HEK293 cells
Type: cell-based
Parameters: expressed in transfected cells; host or cells: HEK293 (stably transfected)
OBSERVED PROPERTY: pIC50
Would you please state pIC50, meaning minus log10 of the concentration in mol/L, as a bare number?

Exercise: Name the recorded pIC50 for C=CCOC(Cn1ccnc1)c1ccc(Cl)cc1Cl (stereo not shown) .
Solution: 4.29

---

Please go through the items and note down their inhibition at 10 µM.
Target: UniProt O15244
Assay: Inhibition of hOCT2-mediated 14C-metformin uptake in transfected HEK293 cells
Format: cell-based
Design: expressed in transfected cells; host or cells: HEK293 (stably transfected)
Details: HEK293, read-out: Inhibitory Effects (%) hOCT2 10 µM Mean
Kindly provide the numeric value in % only, without the unit symbol.

Exercise: Name the recorded inhibition at 10 µM for `C[n+]1ccc(-c2cc[n+](C)cc2)cc1` .
Solution: -15

Exercise: Name the recorded inhibition at 10 µM for `O=C(O)CNCP(=O)(O)O` .
Solution: -24

Exercise: Name the recorded inhibition at 10 µM for COc1ccc(CCN(C)CCCC(C#N)(c2ccc(OC)c(OC)c2)C(C)C)cc1OC (centres unmarked) .
Solution: -8

Exercise: Name the recorded inhibition at 10 µM for `CCNc1nc(Cl)nc(NC(C)C)n1` .
Solution: -57

Exercise: Name the recorded inhibition at 10 µM for `O=[N+]([O-])NC1=NCCN1Cc1ccc(Cl)nc1` .
Solution: -74

Exercise: Name the recorded inhibition at 10 µM for C=CCOC(Cn1ccnc1)c1ccc(Cl)cc1Cl (centres unmarked) .
Solution: 52

Exercise: Name the recorded inhibition at 10 µM for `Cc1ccc(/N=C/N(C)/C=N/c2ccc(C)cc2C)c(C)c1` .
Solution: -98

Exercise: Name the recorded inhibition at 10 µM for `CCCN(CCOc1c(Cl)cc(Cl)cc1Cl)C(=O)n1ccnc1` .
Solution: -43

---

Biological target: mOct2 (Mus musculus, UniProt O70577)
Sequence (O70577 whole entry): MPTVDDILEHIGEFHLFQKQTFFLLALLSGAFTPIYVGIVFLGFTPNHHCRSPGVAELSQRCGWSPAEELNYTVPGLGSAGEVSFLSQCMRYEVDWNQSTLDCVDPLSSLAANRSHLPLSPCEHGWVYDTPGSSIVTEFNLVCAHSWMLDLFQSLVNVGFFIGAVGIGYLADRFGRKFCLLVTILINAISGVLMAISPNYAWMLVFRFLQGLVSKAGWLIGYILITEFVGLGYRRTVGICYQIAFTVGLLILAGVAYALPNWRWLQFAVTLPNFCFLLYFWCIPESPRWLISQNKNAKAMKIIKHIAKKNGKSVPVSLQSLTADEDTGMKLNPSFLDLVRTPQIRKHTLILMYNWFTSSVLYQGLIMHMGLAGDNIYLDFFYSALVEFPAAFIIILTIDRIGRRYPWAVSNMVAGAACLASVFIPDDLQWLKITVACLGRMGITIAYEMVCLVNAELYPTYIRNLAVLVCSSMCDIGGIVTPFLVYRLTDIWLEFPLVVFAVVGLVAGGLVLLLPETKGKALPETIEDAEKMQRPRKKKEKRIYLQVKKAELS
Assay: Inhibition of mOct2-mediated 14C-metformin uptake in transfected HEK293 cells
Format: cell-based
Design: expressed in transfected cells; host or cells: HEK293 (stably transfected)
Conditions: HEK293, read-out: Inhibitory Effects (%) mOct2 10 µM Mean
OBSERVED PROPERTY: inhibition at 10 µM (%)
Kindly provide the numeric value in % only, without the unit symbol.

Exercise: Name the recorded inhibition at 10 µM for C=CCOC(Cn1ccnc1)c1ccc(Cl)cc1Cl (centres unmarked) .
Solution: 83

Exercise: Name the recorded inhibition at 10 µM for `C[n+]1ccc(-c2cc[n+](C)cc2)cc1` .
Solution: -9

Exercise: Name the recorded inhibition at 10 µM for `O=[N+]([O-])NC1=NCCN1Cc1ccc(Cl)nc1` .
Solution: -52

Exercise: Name the recorded inhibition at 10 µM for `CCNc1nc(Cl)nc(NC(C)C)n1` .
Solution: -44

Exercise: Name the recorded inhibition at 10 µM for COc1ccc(CCN(C)CCCC(C#N)(c2ccc(OC)c(OC)c2)C(C)C)cc1OC (centres unmarked) .
Solution: 23

Exercise: Name the recorded inhibition at 10 µM for `CCCN(CCOc1c(Cl)cc(Cl)cc1Cl)C(=O)n1ccnc1` .
Solution: -13

Exercise: Name the recorded inhibition at 10 µM for `O=C(O)CNCP(=O)(O)O` .
Solution: -13

Exercise: Name the recorded inhibition at 10 µM for `Cc1ccc(/N=C/N(C)/C=N/c2ccc(C)cc2C)c(C)c1` .
Solution: -33
